# credit: ChEMBL document CHEMBL1138574

Please provide measured growth at 10 µM for the entries that follow.
Tested on: HOP-92
measurement_protocol: Antitumor activity against human HOP92 cells assessed as cell growth at 10 uM after 48 hrs by sulforhodamine B assay
Format: functional
test_conditions: HOP-92, 48 h, read-out: Activity
Quick reminder: number only, in %, skip the unit.

Query: Observed growth at 10 µM on HOP-92 for CN1C/C(=C\c2ccc(-c3cccs3)cc2)C(=O)[C@]2(C1)[C@@H](c1ccc(-c3cccs3)cc1)CN(C)[C@@]21C(=O)N(C)c2ccccc21 , please.
Response: 41.1

Query: Observed growth at 10 µM on HOP-92 for CN1C/C(=C\c2ccc(Cl)cc2)C(=O)[C@]2(C1)[C@@H](c1ccc(Cl)cc1)CN(C)[C@@]21C(=O)N(C)c2ccccc21 , please.
Response: 61.6

Query: Observed growth at 10 µM on HOP-92 for CN1C/C(=C\c2ccc(Cl)cc2)C(=O)[C@]2(C1)[C@@H](c1ccc(Cl)cc1)CN(C)[C@@]21C(=O)Nc2ccccc21 , please.
Response: 56.2

Query: Observed growth at 10 µM on HOP-92 for COc1ccc(/C=C2\CN(C)C[C@@]3(C2=O)[C@@H](c2ccccc2)CN(C)[C@@]32C(=O)Nc3ccccc32)cc1 , please.
Response: 46.7
